# measurement.notes: SUL-150 levels in plasma, lung and right ventricle (LC-MS/MS)
# Assay type: in vivo, rat
# condition.description: rat, plasma, intraperitoneal, 6 mg·kg^−1·day^−1, range over PAH rats at sacrifice; read-out: plasma level of SUL-150, range
property.measured: concentration at 28 days

Recorded concentration at 28 days (compound Cc1c(C)c2c(c(C)c1O)CC[C@](C)(C(=O)N1CCNCC1)O2 ): 3.3 to 93.2 ng/mL

###

# System: pulmonary artery rings
# measurement.notes: Ex vivo myography of pulmonary artery rings, acute SUL-150 pre-incubation, phenylephrine-induced vasoconstriction
# Design: species or system rat
# condition.description: Rattus norvegicus, pulmonary artery rings of PAH rats, vehicle pre-incubation
property.measured: pEC50
Bear in mind: pEC50 is minus log10 of a mol/L concentration; give just that figure.

The compound CNC[C@H](O)c1cccc(O)c1 [phenylephrine] , when measured on pulmonary artery rings, yielded pEC50 of 5.97

###

# measurement.notes: SUL-150 levels in plasma, lung and right ventricle (LC-MS/MS)
# Assay type: in vivo, rat
# condition.description: rat, plasma, ip, 6 mg·kg^−1·day^−1, mean of PAH rats at sacrifice, ~6 mg·kg^−1·day^−1 i.p. minipump; read-out: mean concentration of SUL-150 in blood plasma
property.measured: concentration at 28 days

Recorded concentration at 28 days (compound Cc1c(C)c2c(c(C)c1O)CC[C@](C)(C(=O)N1CCNCC1)O2 ): 30.3 ng/mL

###

# measurement.notes: SUL-150 levels in plasma, lung and right ventricle (LC-MS/MS)
# Type: in vivo, rat
# condition.description: rat, plasma, ip, 6 mg·kg^−1·day^−1, mean of PAH rats at sacrifice, ~6 mg·kg^−1·day^−1 i.p. minipump; read-out: mean concentration of SUL-150 in blood plasma
property.measured: concentration at 4 weeks
The reply should read as a number followed by its unit.

Recorded concentration at 4 weeks (molecule Cc1c(C)c2c(c(C)c1O)CC[C@](C)(C(=O)N1CCNCC1)O2 ): 30.3 ng/mL

###

# measurement.notes: SUL-150 levels in plasma, lung and right ventricle (LC-MS/MS)
# Assay type: in vivo, rat
# condition.description: rat, right ventricle, ip, 6 mg·kg^−1·day^−1, mean of PAH rats at sacrifice, ~6 mg·kg^−1·day^−1 i.p. minipump; read-out: mean concentration of SUL-150 in right ventricle
property.measured: concentration at 4 weeks (ng/g)
Enter your answer as a number in ng/g; do not include the unit.

Recorded concentration at 4 weeks (molecule Cc1c(C)c2c(c(C)c1O)CC[C@](C)(C(=O)N1CCNCC1)O2 [SUL-150] ): 41.5
